Molecular target: SMARCA2 (Homo sapiens)
Assay: SMARCA2 Western blot degradation in MV4-11 cells
Assay type: cell-based
Design: SMARCA2/SMARCA4 protein degradation selectivity in MV4-11 cells; endogenous in cells; host or cells: MV4-11
Conditions: MV4-11, MV4-11 cells, 24 h; read-out: SMARCA2 MSD MV411 degradation 24 h: average Dmax %
# Dmax per record follows

Example entries and their recorded answers appear below.
Cc1ncsc1-c1ccc(CNC(=O)[C@@H]2C[C@@H](O)CN2C(=O)[C@@H](NC(=O)C2(F)CC2)C(C)(C)C)c(O[C@H]2CC[C@@H](N3CCC(N4CCC(c5cnc(N6CCc7[nH]c8nnc(-c9ccccc9O)cc8c7[C@@H]6C)nc5)CC4)CC3)CC2)c1 (single isomer, unassigned) :: 50 to 70%
C#Cc1ccc(CNC(=O)[C@@H]2C[C@@H](O)CN2C(=O)[C@@H](NC(=O)N2CC3(CC(N4CCC(c5cnc(N6CCc7[nH]c8nnc(-c9ccccc9O)cc8c7[C@H]6CC)nc5)CC4)C3)C2)C(C)(C)C)cc1 :: 70 to 90%
C#Cc1ccc(CNC(=O)[C@@H]2C[C@@H](O)CN2C(=O)[C@@H](NC(=O)N2CCN(C3CC4(CCN(c5cnc(N6CCN7c8cc(-c9ccccc9O)nnc8NC[C@H]7C6)nc5)CC4)C3)CC2)C(C)(C)C)cc1 :: > 90%

Please look at the following compound next.
Task item: Record lookup: for SMARCA2 (Homo sapiens), what Dmax belongs to "C#Cc1ccc([C@H](CO)NC(=O)[C@@H]2C[C@@H](O)CN2C(=O)[C@@H](NC(=O)N2CC3(CC(N4CCC(c5cnc(N6CCc7[nH]c8nnc(-c9ccccc9O)cc8c7[C@H]6C)nc5)CC4)C3)C2)C(C)(C)C)cc1" ?
Reply: > 90%

###

Target: SMARCA2 (Homo sapiens, UniProt P51531)
Sequence (P51531 whole entry): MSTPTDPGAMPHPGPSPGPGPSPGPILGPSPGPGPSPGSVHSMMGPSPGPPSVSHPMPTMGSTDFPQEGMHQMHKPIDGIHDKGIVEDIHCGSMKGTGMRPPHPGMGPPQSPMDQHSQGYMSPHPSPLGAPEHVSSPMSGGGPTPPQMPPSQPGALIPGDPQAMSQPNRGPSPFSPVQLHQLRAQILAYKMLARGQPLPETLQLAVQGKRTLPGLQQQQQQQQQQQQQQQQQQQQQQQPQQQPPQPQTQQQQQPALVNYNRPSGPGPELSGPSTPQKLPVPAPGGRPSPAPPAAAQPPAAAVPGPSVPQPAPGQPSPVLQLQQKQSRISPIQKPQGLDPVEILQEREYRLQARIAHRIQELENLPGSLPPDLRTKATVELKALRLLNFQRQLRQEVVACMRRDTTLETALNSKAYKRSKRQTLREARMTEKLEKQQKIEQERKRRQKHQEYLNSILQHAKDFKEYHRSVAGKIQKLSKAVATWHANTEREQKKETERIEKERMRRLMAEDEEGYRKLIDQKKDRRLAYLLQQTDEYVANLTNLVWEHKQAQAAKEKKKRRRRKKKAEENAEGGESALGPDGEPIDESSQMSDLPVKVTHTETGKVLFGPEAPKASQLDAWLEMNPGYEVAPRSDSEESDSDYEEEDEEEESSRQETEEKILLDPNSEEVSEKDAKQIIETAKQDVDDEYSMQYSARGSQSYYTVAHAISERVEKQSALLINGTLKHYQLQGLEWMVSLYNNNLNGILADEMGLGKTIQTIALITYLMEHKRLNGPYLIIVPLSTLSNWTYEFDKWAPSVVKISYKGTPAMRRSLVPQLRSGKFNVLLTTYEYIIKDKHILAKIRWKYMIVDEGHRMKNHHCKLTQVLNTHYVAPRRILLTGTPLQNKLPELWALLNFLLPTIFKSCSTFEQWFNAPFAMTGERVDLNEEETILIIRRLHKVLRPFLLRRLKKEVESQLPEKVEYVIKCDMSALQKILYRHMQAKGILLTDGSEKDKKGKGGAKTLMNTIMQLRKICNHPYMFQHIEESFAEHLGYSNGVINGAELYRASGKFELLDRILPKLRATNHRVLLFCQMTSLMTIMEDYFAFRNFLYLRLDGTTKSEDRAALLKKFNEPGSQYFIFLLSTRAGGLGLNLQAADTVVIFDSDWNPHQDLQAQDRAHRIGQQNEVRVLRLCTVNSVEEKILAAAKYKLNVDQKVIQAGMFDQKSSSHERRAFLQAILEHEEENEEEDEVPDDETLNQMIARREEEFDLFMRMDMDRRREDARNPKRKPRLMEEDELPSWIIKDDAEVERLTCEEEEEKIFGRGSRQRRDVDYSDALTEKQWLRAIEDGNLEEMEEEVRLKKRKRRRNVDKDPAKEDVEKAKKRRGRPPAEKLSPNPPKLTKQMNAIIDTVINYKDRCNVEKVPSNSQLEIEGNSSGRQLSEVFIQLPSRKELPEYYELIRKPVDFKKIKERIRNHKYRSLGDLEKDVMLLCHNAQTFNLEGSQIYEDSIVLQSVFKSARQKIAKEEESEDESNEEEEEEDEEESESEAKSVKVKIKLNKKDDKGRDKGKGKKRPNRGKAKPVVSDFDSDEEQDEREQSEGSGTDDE
Assay: MSD SMARCA2 degradation in A549 cell line
Type: cell-based
Settings: A549, A549 cells, 24 h
# Dmax per record follows

Example entries and their recorded answers appear below.
C#CCOc1cc(C(C(=O)N2C[C@H](O)C[C@H]2C(=O)NCc2ccc(-c3scnc3C)cc2O[C@H]2CC[C@H](N3CCC(c4cnc(N5CCc6[nH]c7nnc(-c8ccccc8O)cc7c6[C@H]5C)nc4)CC3)CC2)C(C)C)on1 (single isomer, unassigned) [I-38] :: > 90%
C#Cc1ccc(CNC(=O)[C@@H]2C[C@@H](O)CN2C(=O)[C@@H](N(CCN(C)C)C(=O)N2CC3(CC(N4CCC(c5cnc(N6CCc7[nH]c8nnc(-c9ccccc9O)cc8c7[C@H]6C)nc5)CC4)C3)C2)C(C)(C)C)cc1 [I-141] :: < 50%
C#Cc1ccc(CNC(=O)[C@@H]2C[C@@H](O)CN2C(=O)[C@@H](NC(=O)[C@H]2CC3(C2)C[C@H](N2CCC(N4CCC(N5CCN6c7cc(-c8ccccc8O)nnc7NC[C@H]6C5)CC4)CC2)C3)C(C)(C)CCO)cc1 (single isomer, unassigned) [I-364] :: 70 to 90%
Cn1nccc1-c1ccc(CNC(=O)[C@@H]2C[C@@H](O)CN2C(=O)[C@@H](NC(=O)[C@H]2CC[C@@H](c3ccc(-c4cnc(N5CCN6c7cc(-c8ccccc8O)nnc7NC[C@H]6C5)nc4)cc3)CC2)C(C)(C)C)cc1 (single isomer, unassigned) [I-88] :: > 90%
C#Cc1ccc(CNC(=O)[C@@H]2C[C@@H](O)CN2C(=O)[C@@H](NC(=O)C2CC3(C2)CC(N2CCC(N4CCC(N5CCN6c7cc(-c8ccccc8O)nnc7NC[C@H]6C5)CC4)CC2)C3)C(C)(C)C)cc1 (stereo partly shown) [I-137] :: > 90%

Task item: Record lookup: for SMARCA2 (Homo sapiens, UniProt P51531), what Dmax belongs to C#Cc1ccc(CNC(=O)[C@@H]2C[C@@H](O)CN2C(=O)[C@@H](NC(=O)[C@H]2CC[C@H](CN3CCC(c4cnc(N5CCN6c7cc(-c8ccccc8O)nnc7NC[C@H]6C5)nc4)CC3)CC2)C(C)(C)C)cc1 [I-294] ?
Reply: > 90%

Task item: Record lookup: for SMARCA2 (Homo sapiens, UniProt P51531), what Dmax belongs to C#Cc1ccc(CNC(=O)[C@@H]2C[C@@H](O)CN2C(=O)[C@@H](NC(=O)C2CC3(C2)CN(c2cnc(N4CCC(N5CCN6c7cc(-c8ccccc8O)nnc7NC[C@H]6C5)CC4)cn2)C3)C(C)(C)C)cc1 [I-320] ?
Reply: > 90%
